SYSTEM NAME: T1, GST-PHD1 (S287-K347) D292A of KDM5A (human, UniProt P29375 287-347, D292A)
T1 construct: PHD1 domain of histone demethylase KDM5A, human, residues S287-K347 with D292A; Cloned into pET41a; the vector may add further tags (surmise); also called S287-K347 PHD1 D292A; PHD1 D292A; source: E. coli BL21(DE3), purified (Glutathione Sepharose 4B, Superdex 75 SEC); not shown: GST, N-terminal, kept
T1 sequence (looked up): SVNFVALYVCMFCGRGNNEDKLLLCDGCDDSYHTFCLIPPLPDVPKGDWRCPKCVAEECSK
ASSAY COMMENT: fluorescence polarisation; competition-based FP: 2 µM GST-PHD1 with 10 nM C-terminal fluorescently labeled H3 peptide and different concentrations of unlabeled competitor peptide
PARTICULARS: both partners purified
Where no end group is shown, it is not given here. Me3 = trimethyl-lysine
PROPERTY LABEL: Kd (µM)

ARTK(Me3)QTARKS (peptide, UniProt P68431 2-11, looked up, histone H3 N-terminal tail, 10mer Ala1-Ser10; also called tri-methylated H3K4 peptide) [H3K4me3 10mer peptide] | 511
ARTAQTARKS (peptide, UniProt P68431 2-11, looked up, histone H3 N-terminal tail, 10mer Ala1-Ser10 with K4A) [H3K4A 10mer peptide] | 22.2
